- test_target: hSTING (Homo sapiens, UniProt Q86WV6, G230A/H232R/R293Q/R71H)
- Sequence (Q86WV6 whole entry R71H/G230A/H232R/R293Q): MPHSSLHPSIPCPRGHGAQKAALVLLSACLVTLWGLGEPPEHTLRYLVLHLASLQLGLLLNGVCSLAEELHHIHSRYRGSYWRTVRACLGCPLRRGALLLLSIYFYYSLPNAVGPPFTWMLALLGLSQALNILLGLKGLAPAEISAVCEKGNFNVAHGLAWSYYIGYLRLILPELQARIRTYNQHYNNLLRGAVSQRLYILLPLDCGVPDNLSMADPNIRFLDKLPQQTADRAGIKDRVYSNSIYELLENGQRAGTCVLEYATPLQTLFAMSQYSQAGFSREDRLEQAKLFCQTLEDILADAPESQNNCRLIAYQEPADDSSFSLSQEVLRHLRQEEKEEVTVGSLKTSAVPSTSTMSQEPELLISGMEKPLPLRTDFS
- assay_summary: STING reporter assay: THP1-Dual KO-IFNAR2 cells stimulated with 2′3′cGAMP, luciferase reporter activity
- test_conditions: 15 μM 2′3′cGAMP transfected with Lipofectamine 2000, 24 h, luciferase reporter (QUANTI-Luc)
pEC50: −log10 of the molar value.
quantity_measured: pEC50

Write down pEC50 measured for item O=C(Nc1c[nH]c2ccccc12)c1cn(-c2ccc(C(F)(F)F)c(Cl)c2)cn1 6.00 to 6.70

Note pEC50 for the compound shown: O=C(Nc1c[nH]c2cc(F)c(F)cc12)c1cc(-c2cc(F)cc(F)c2)[nH]n1 6.00 to 6.70

Hello, please tell me recorded pEC50 for this one: O=C(Nc1c[nH]c2cc(F)c(F)cc12)c1cnn(CC2CCC(F)(F)CC2)c1 6.00 to 6.70

Please report the measured pEC50 for O=C(Nc1c[nH]c2cc(F)c(F)cc12)c1cc(-c2ccc(Cl)cc2)on1 6.00 to 6.70

Identify measured pEC50 associated with O=C(Nc1c[nH]c2cc(F)c(F)cc12)c1cnn(CCOc2cncc(C(F)(F)F)c2)c1 6.00 to 6.70

Report measured pEC50; entry is CC(C)n1cc(-c2ccc3[nH]cc(NC(=O)c4cn(-c5ccc(C(F)(F)F)cc5)cn4)c3c2)cn1 6.00 to 6.70

Give the reported value of pEC50 for this record: O=C(Nc1c[nH]c2cc(F)ccc12)c1ccn(Cc2ccc(C(F)(F)F)cc2)n1 6.00 to 6.70

Quickly give me recorded pEC50 for Cc1cc(-c2cc(C(=O)Nc3c[nH]c4cc(F)c(F)cc34)n[nH]2)ccc1Cl 6.00 to 6.70

Assign pEC50 to the following record: O=C(Nc1c[nH]c2ccc(-c3ccc(CO)c(F)c3)cc12)c1cn(Cc2ccc(C(F)(F)F)cc2)cn1 5.30 to 6.00

Provide measured pEC50 value, entry: O=C(Nc1c[nH]c2cc(F)c(F)cc12)c1cc(-c2cccc(Cl)c2)[nH]n1 6.00 to 6.70

Quickly give me recorded pEC50 for O=C(Nc1c[nH]c2cc(F)c(F)cc12)c1ccn(CCOc2cccnc2)n1 4.00 to 5.30

Specify measured pEC50 for O=C(Nc1c[nH]c2ccccc12)c1cn(Cc2ccc(C(F)(F)F)c(Cl)c2)cn1 . 6.00 to 6.70

Tell us which pEC50 value is on record for O=C(Nc1c[nH]c2cc(F)c(F)cc12)c1cc(CC2CCN(CC(F)(F)F)CC2)no1 6.70 to 7.40

# return recorded pEC50 for entry O=C(Nc1c[nH]c2cc(F)c(F)cc12)c1cc(-c2ccncc2)[nH]n1 4.00 to 5.30

Note pEC50 for the compound shown: O=C(Nc1c[nH]c2ccccc12)c1cn(-c2cnc(OCC(F)(F)F)c(F)c2)nn1 4.00 to 5.30

Supply recorded pEC50 for O=C(Nc1c[nH]c2ccc(Cl)cc12)c1cn(-c2cnc(NCC(F)(F)F)c(F)c2)nn1 here. 6.00 to 6.70
